System: MDA-MB-435
experiment: NCI tumour cell line growth inhibition, 48 h
Active and inactive are the calls of the source. Cut-off read from the data, not from the text of the source: active = GI50 up to about 1.1 µM and inactive = higher.
reported.metric: GI50

Here are 6 molecules together with their reported answers.
molecule=Cc1ccc(-n2cc(-c3ccc(Cl)cc3)c3c(=N)n(N)cnc32)cc1 target_desc=MDA-MB-435 reading="11.1 µM (inactive)"
molecule="Cc1cc(S(=O)(=O)NC2=Nc3ccc(Cl)cc3C(c3ccccc3)N2)c(S)cc1Cl (configuration not stated)" target_desc=MDA-MB-435 reading="> 100 µM (inactive)"
molecule="CN(Cc1cnc2nc(N)nc(N)c2n1)c1ccc(C(=O)NC(CCC(=O)NCCC(P(=O)(O)O)P(=O)(O)O)C(=O)O)cc1 (configuration not stated)" target_desc=MDA-MB-435 reading="6.03 µM (inactive)"
molecule=COc1ccc(N2C=Nn3c(nc4sc(C)c(C)c4c3=O)C2)cc1 target_desc=MDA-MB-435 reading="> 100 µM (inactive)"
molecule="CCOC1=NC(C(F)(F)F)(C(F)(F)F)N=C(/N=C(/N)N(C)C(C(C)C)P(=O)(OC(C)C)OC(C)C)O1 (configuration not stated)" target_desc=MDA-MB-435 reading="> 100 µM (inactive)"
molecule=O=S(=O)(O)c1cc(S(=O)(=O)O)c2c(/N=N/c3ccccc3)c(O)ccc2c1 target_desc=MDA-MB-435 reading="> 100 µM (inactive)"

Hey, quick one: what's GI50 for each of these?
1. O=C(Nc1ccc2c(c1)oc(=O)c1ccccc12)C(Cl)Cl
2. c1ccc(Nc2nnc(-c3ccccc3Nc3ccccc3-c3nnc(Nc4ccccc4)s3)s2)cc1
3. Cc1sc2nc(-c3cccc([N+](=O)[O-])c3)c(/C=N/N=C(N)N)n2c1C
4. CC(=O)C1(C(=O)C(=[N+]=[N-])S(=O)(=O)c2ccccc2)CC1
5. Cc1ccc2nc(-c3ccc(C(C)(C)C)cc3)oc(=O)c2c1

Data returned:
1: > 100 µM (inactive); 2: > 100 µM (inactive); 3: 1.79 µM (inactive); 4: > 100 µM (inactive); 5: 14.7 µM (inactive)

Data request: Field: GI50 (MDA-MB-435). Entry: `CC(C)(C)OC(=O)NCC(=O)N(CCc1ccc(Cl)c(Cl)c1)CCN1CCCC1`
Data returned: 13.9 µM (inactive)

###

Tested on: SW-620
experiment: NCI tumour cell line growth inhibition, 48 h
Activity calls are given as the source filed them. Cut-off read from the data, not from the text of the source: active = GI50 up to about 1.1 µM and inactive = higher.
reported.metric: GI50

Here are 4 molecules together with their reported answers.
molecule=Cn1cc(-c2ccc3c4ccccc4n(C)c3c2)c2ccccc21 reported_metric=GI50 reading="> 100 µM (inactive)"
molecule="O=C1C2Cc3ccccc3CN2C(=O)N1CN1CCN(CN2C(=O)C3Cc4ccccc4CN3C2=O)CC1 (stereo not given)" reported_metric=GI50 reading="> 100 µM (inactive)"
molecule="c1ccc(C2C3=C(c4ccccc4CC3)N3c4cc5c(cc4=NC34CCCCC24)Nc2ccccc2N=5)cc1 (stereo not given)" reported_metric=GI50 reading="9.64 µM (inactive)"
molecule=O=[N+]([O-])c1ccc(/C(=C\c2ccccc2)Cn2ccnc2)cc1 reported_metric=GI50 reading="44.7 µM (inactive)"

Kindly review the next molecule as well.
Data request: Could you share which GI50 value was measured for COc1ccc(N2C(=O)C(C#N)=C(SC)C(C#N)C2=O)cc1 (stereo not given) ?
Data returned: > 100 µM (inactive)

###

System: SNB-19
experiment: NCI tumour cell line growth inhibition, 48 h
Activity calls are given as the source filed them. Rule as the data show it: active = GI50 up to about 1.1 µM and inactive = higher.
reported.metric: GI50

Here are 5 compounds together with their reported answers.
compound=Cc1cc(Cc2c(C)c(C)c(Cc3cc(C)cc(C(C)(C)C)c3O)c(C)c2C)c(O)c(C(C)(C)C)c1 reading="> 100 µM (inactive)"
compound="COC(OC)c1cccc2c1C(=O)CCC1(O)c3ccccc3C1C2 (configuration not stated)" reading="> 100 µM (inactive)"
compound=CCCCn1c(C)c(C(=O)CC)c(C(=O)NCCN2CCN(c3ccccc3Cl)CC2)c1C reading="15.8 µM (inactive)"
compound="O=C1OC2(C(F)(F)F)Oc3ccccc3CN2C12CCCCC2 (configuration not stated)" reading="36.3 µM (inactive)"
compound="CCC1=NC(CO)[C@H](c2ccccc2)O1 (some centres not stated)" reading="> 100 µM (inactive)"

Hey, quick one: what's GI50 for each of these?
1. NCc1cccc(O)c1O
2. O=C1NN=C2C=C(c3ccc(Cl)cc3)CC(c3cccc(Cl)c3)C12 (configuration not stated)
3. COc1ccccc1C(=O)Nc1ccc(Cl)c(C(=O)OC(C)C)c1
4. CCOC(=O)C(NC(=O)c1nc[nH]c1/N=N/N(C)C)C(C)C (configuration not stated)
5. CCOC(=O)c1sc2nc(SC)nc3c2c1NC(=O)CN3c1ccc(F)cc1

Data returned:
> 100 µM (inactive)
15.1 µM (inactive)
> 65.3 µM (inactive)
> 100 µM (inactive)
27.8 µM (inactive)

Hey, quick one: what's GI50 for each of these?
1. O=S1(=O)OCCOS(=O)(=O)C1C1c2ccccc2-c2ccccc21
2. O=C(OCCN=c1c2ccccc2ccc2ccccc12)c1cc([N+](=O)[O-])cc([N+](=O)[O-])c1
3. CN(C)/C(=N\C#N)N(Cc1ccccc1)Cc1ccccc1
4. C=C1C(=O)O[C@H]2C3OC3(C)CC/C=C(/C(=O)OC)[C@@H](OC(C)=O)[C@H](OC(=O)C3(C)OC3C)[C@H]12 (some centres not stated)
5. CNC(C)Cc1ccc(O)cc1 (configuration not stated)

Data returned:
1. 38.5 µM (inactive)
2. > 100 µM (inactive)
3. > 100 µM (inactive)
4. > 7.5 µM (inactive)
5. > 100 µM (inactive)

Hey, quick one: what's GI50 for each of these?
1. C=C1[C@@](C)([C@@H]2CCCS2)[C@H]2C(C)=C[C@]1(C)n1c(=O)n(-c3ccccc3)c(=O)n12
2. CCCCNC(=O)OCC(COc1ccccc1OC)OC(=O)NCCCC (configuration not stated)
3. Cc1nc(-c2nc([N+](=O)[O-])c([N+](=O)[O-])[nH]2)cs1
4. C#C[C@H]1CCCCCC1O (some centres not stated)
5. CC1NOC(=O)C1/N=N/c1ccccc1Cl (configuration not stated)
6. Brc1cccc(C2(CCCC3(c4cccc(Br)n4)OCCO3)OCCO2)n1
7. Oc1cccc2nc3cc(CN4CCOCC4)c(CN4CCOCC4)cc3nc12

Data returned:
> 100 µM (inactive)
> 100 µM (inactive)
> 100 µM (inactive)
> 100 µM (inactive)
51.1 µM (inactive)
> 100 µM (inactive)
> 100 µM (inactive)

###

Answer each item with its documented GI50.
System: ACHN
experiment: NCI tumour cell line growth inhibition, 48 h
The source made the active and inactive calls. Cut-off read from the data, not from the text of the source: active = GI50 up to about 1.1 µM and inactive = higher.

Here are 5 molecules together with their reported answers.
molecule=Cc1cc2nc3c(N)nn(CCN(C)C)c3nc2cc1C reading="28.4 µM (inactive)"
molecule=CN(C)Cc1cc(/N=N/c2ccccc2)ccc1O reading="29 µM (inactive)"
molecule="COP(=O)(O)C(N)Cc1c[nH]c2ccccc12 (stereo unspecified)" reading="> 100 µM (inactive)"
molecule=Cc1ccc(/N=N/c2c(O)ccc3cc(S(=O)(=O)O)ccc23)cc1 reading="> 100 µM (inactive)"
molecule="CCCCCCCCCCCc1noc2c1C(=O)C(O)CC2 (stereo unspecified)" reading="32.8 µM (inactive)"

Kindly review the next molecule as well.
Data request: Could you share which GI50 value was measured for COCC1N=C(c2ccc(OC)c(OCc3ccccc3)c2OC)O[C@H]1c1ccccc1 (stereo partly specified) ?
Data returned: 12.9 µM (inactive)

###

Test system: SNB-78
experiment: NCI tumour cell line growth inhibition, 48 h
Calls of active or inactive are those of the source. Cut-off read from the data, not from the text of the source: active = GI50 up to about 1.1 µM and inactive = higher.
Answer each item with its documented GI50.

molecule="O=C(O)CP(=S)(S)c1ccccc1 (configuration not stated)" reported_metric=GI50 reading="> 100 µM (inactive)"

Hey, quick one: what's GI50 for each of these?
1. CCOC(=O)CSc1cc[nH]c(=O)n1
2. NCc1cccc(O)c1O
3. S=c1nc2c(c[nH]1)C1c3ccccc3C2c2ccccc21
4. COc1ccccc1C(=O)Nc1ccc(Cl)c(C(=O)OC(C)C)c1

Data returned:
["> 100 µM (inactive)", "> 100 µM (inactive)", "> 100 µM (inactive)", "42 µM (inactive)"]

Hey, quick one: what's GI50 for each of these?
1. O=c1c2cc(Br)ccc2nc(CNc2ccccc2)n1-c1ccccc1
2. C1=CC=C2NCCOCC/N=C3/C=CC=CC=C3NCCOCC/N=C\2C=C1

Data returned:
["21.1 µM (inactive)", "> 100 µM (inactive)"]

###

Tested on: M14
experiment: NCI tumour cell line growth inhibition, 48 h
The source made the active and inactive calls. No stated cut-off is given here; in the data, active = GI50 up to about 1.1 µM and inactive = higher.
API: response.call in T = active, F = inactive

compound=O=c1[nH]nc(-c2ccccc2)n1/N=C/c1ccco1 cat=F
compound="NC1CNC(=O)c2c(Cl)sc(Cl)c21 (centres undefined)" cat=F
compound=CC(C)C.C[N+](C)(C)C.OC(c1ccccc1)(C(F)(F)F)C(F)(F)F.OC(c1ccccc1)(C(F)(F)F)C(F)(F)F.[SiH3-] cat=T

Data request: Just curious, what result did COc1cc(/C=C2\CCC(C)(CN(C)C)C2=O)cc(OC)c1OC (centres undefined) get here?
Data returned: F
